- Target Entity: CD46 on Colo205 cells (human) (UniProt P15529)
- Protocol Summary: FACS, Colo205 cells that express CD46; EC50 at pH 7.4 over EC50 at pH 6.0
Measured Parameter: Ratio (pH 7.4/6.0)
// return a plain number; no unit text

BA-133-04-03 (antibody, V domains shown) VH: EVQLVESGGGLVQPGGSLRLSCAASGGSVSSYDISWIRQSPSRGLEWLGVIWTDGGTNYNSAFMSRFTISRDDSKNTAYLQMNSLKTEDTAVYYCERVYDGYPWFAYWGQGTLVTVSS VL: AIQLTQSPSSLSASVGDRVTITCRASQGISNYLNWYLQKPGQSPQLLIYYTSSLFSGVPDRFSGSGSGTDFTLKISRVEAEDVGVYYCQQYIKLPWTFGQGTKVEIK
9.7

The value of Ratio (pH 7.4/6.0) measured for the binder BA-133-04-02 (antibody, V domains shown) VH: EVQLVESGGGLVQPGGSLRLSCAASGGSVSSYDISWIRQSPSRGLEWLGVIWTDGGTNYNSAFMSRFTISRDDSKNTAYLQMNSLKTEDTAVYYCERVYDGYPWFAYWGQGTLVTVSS VL: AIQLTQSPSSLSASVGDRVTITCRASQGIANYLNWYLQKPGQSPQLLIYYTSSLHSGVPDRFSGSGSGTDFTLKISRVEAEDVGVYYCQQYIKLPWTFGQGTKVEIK turned out to be 4.2

The value of Ratio (pH 7.4/6.0) measured for the binder Benchmark (BM) BA-133-00-01 (antibody, V domains shown) VH: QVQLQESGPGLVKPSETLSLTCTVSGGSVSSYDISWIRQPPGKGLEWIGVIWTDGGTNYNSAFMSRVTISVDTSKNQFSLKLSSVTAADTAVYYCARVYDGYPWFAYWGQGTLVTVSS VL: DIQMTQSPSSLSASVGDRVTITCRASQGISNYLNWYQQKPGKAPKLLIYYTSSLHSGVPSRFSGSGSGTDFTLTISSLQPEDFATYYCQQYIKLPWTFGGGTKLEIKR turned out to be 2.6

The value of Ratio (pH 7.4/6.0) measured for the binder BA-133-04-01 (antibody, V domains shown) VH: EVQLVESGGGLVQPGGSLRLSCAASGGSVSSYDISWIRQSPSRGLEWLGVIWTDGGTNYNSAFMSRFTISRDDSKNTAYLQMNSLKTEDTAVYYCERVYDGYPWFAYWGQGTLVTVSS VL: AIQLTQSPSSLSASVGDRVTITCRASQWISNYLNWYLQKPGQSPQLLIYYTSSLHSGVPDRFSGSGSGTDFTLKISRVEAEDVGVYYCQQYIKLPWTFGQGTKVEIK turned out to be 4.6

These data points were gathered from patent US20230242662A1.
